# reported pEC50; entries follow
# Assay target: T1, human CXCR5 (human, UniProt P32302 1-372)
# T1 construct: also called hCXCR5; C-X-C chemokine receptor type 5
# T1 sequence: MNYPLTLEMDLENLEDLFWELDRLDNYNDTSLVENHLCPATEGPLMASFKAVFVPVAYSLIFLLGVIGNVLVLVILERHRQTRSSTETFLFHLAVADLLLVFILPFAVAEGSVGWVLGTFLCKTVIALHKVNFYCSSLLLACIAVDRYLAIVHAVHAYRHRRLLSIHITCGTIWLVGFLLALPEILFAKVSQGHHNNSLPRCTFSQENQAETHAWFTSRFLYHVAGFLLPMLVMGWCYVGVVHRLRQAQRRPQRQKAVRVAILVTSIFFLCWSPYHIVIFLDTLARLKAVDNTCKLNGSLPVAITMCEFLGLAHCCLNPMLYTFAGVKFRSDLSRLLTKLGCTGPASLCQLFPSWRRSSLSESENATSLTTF
# Assay protocol: flow cytometry, human PBMC B cells
Formally, pEC50 is defined as -log10 of the concentration c, with c in mol/L.

1) Humanized 11G2 154/155 (antibody, human IgG1, kappa, V domains shown, fucosylated human IgG1/kappa; also called h11G2 VL XC154/VH XC155) VH: EVQLVESGGGLVQPGGSLRLSCAASGFTFTDFYMSWVRQAPGKGLEWVGFIRNKANGYTTEYSASVKGRFTISRDNAKNSLYLQMNSLRAEDTAVYYCARVYGSTLHYWGQGTLVTVSS VL: DIQMTQSPSSLSASVGDRVTITCRASESVEYHGTSLMHWYQQKPGKAPKLLIYAASNVESGVPSRFSGSGSGTDFTLTISSLQPEDFATYYCQQSRKVPWTFGQGTKVEIKR | 11.15
2) Chimeric 41A10 (antibody, human IgG1, kappa, V domains shown, mouse V regions on human IgG1/kappa; fucosylated; also called 41A10 (chimeric)) VH: EVQLVESGGDLVKPGGSLKLSCAASGFTFRSYGMSWVRQTPDKRLEWVATISSGGTYTFYPDILKGRITISRDNAKNTLYLQMSNLKSEDTAMYYCARRGEDYRGALEHWGQGTSVTVSS VL: QIVLTQSPAVMSASPGEKVTMTCSASSSVNYIHWYQQKSGTSPKRWIYETSRLASGVPVRFSGSGSGTSYSLTISTMEAEDAATYYCQQWSSNPLTFGAGTKLELKR | 9.79

Let's switch to this binder now.
Ask | Name the reported pEC50 value associated with the binder Chimeric 11G2 (antibody, human IgG1, kappa, V domains shown, mouse V regions on human IgG1/kappa; also called 11G2 (chimeric)) VH: EVKLVESGGGLVQPGGSLRLSCATSGFTFTDFYMSWVRQPPGRALEWLGFIRNKANGYTTEYSASVKGRFTISRDNSQSILYLQMNTLRAGDSATYYCVRVYGSTLHYWGQGTILTVSS VL: DVVVTQSPDSLAVSLGQRATISCRASESVEYHGTSLMHWYQQKPGQPPKLLIYAASNVESGVPARFSGSGSGTDFSLNIHPVEEGDIAMYFCQQSRKVPWTFGGGTKLEIKR
Reply | 10.75
